target: Fatty acid synthase (Homo sapiens); test: FAS thioesterase domain inhibitors, SAR follow-up, biochemical, kinetic fluorescence intensity, dose response (AID 652165); conditions: recombinant FAS-TE, OMFH fluorogenic substrate
pIC50: −log10 of the molar value.
The following compounds are shown together with reported pIC50 values.

# COMPOUND, TESTED TARGET, pIC50
rows = [
    ("CCC(C)C(=O)Nc1nc(-c2ccc(S(=O)(=O)N3CCOCC3)cc2)cs1 (configuration not stated)", "Fatty acid synthase (Homo sapiens)", 6.54),
    ("O=C(Nc1nc(-c2ccc(S(=O)(=O)N3CCOCC3)cc2)cs1)C1CC1", "Fatty acid synthase (Homo sapiens)", 5.29),
    ("O=C(Nc1nc(-c2ccc(S(=O)(=O)N3CCOCC3)cc2)cs1)C1CCC1", "Fatty acid synthase (Homo sapiens)", 5.46),
    ("CN(C)S(=O)(=O)c1ccc(-c2csc(NC(=O)C3CCCC3)n2)cc1", "Fatty acid synthase (Homo sapiens)", 5.82),
    ("CCN(CC)S(=O)(=O)c1ccc(-c2csc(NC(=O)C3CCCCC3)n2)cc1", "Fatty acid synthase (Homo sapiens)", 5.50),
    ("CCC(CC)C(=O)Nc1nc(-c2ccc(S(=O)(=O)N3CCOCC3)cc2)cs1", "Fatty acid synthase (Homo sapiens)", 6.51),
    ("CC(C)CC(=O)Nc1nc(-c2ccc(S(=O)(=O)N3CCOCC3)cc2)cs1", "Fatty acid synthase (Homo sapiens)", 5.18),
    ("CCC(=O)Nc1nc(-c2ccc(S(=O)(=O)N(C)C)cc2)cs1", "Fatty acid synthase (Homo sapiens)", 5.96),
    ("CCN(CC)S(=O)(=O)c1ccc(-c2csc(NC(=O)C(C)C)n2)cc1", "Fatty acid synthase (Homo sapiens)", 6.50),
    ("CCCCC(=O)Nc1nc(-c2ccc(S(=O)(=O)N3CCSCC3)cc2)cs1", "Fatty acid synthase (Homo sapiens)", 6.19),
    ("CCC(C)C(=O)Nc1nc(-c2ccc(S(=O)(=O)N(CC)CC)cc2)cs1 (configuration not stated)", "Fatty acid synthase (Homo sapiens)", 6.53),
    ("CC(=O)Nc1nc(-c2ccc(S(=O)(=O)N3CCOCC3)cc2)cs1", "Fatty acid synthase (Homo sapiens)", 4.92),
]

src = PubChem BioAssay AID652165
